Kindly supply the reported log10 of MIC values for the records listed here.
# Test system: Pseudomonas aeruginosa
# experiment_notes: Antimicrobial activity against Pseudomonas aeruginosa R70 Etest
# Type: functional
A difference of one corresponds to tenfold MIC; all values are log10 with MIC in mg/L.

// worked examples, log10 of MIC included
compound	log10 of MIC
NCC[C@H](O)C(=O)N[C@@H]1C[C@H](N)[C@@H](O[C@H]2O[C@H](CN)[C@@H](O)[C@H](O)[C@H]2O)[C@H](O)[C@H]1O[C@H]1O[C@H](CO)[C@@H](O)[C@H](N)[C@H]1O [AMIKACIN]	0.00
CC(C)(O/N=C(\C(=O)N[C@@H]1C(=O)N2C(C(=O)[O-])=C(C[n+]3ccccc3)CS[C@H]12)c1csc(N)n1)C(=O)O [CEFTAZIDIME]	0.90
C[C@@H](O)[C@H]1C(=O)N2C(C(=O)O)=C(SCCNC=N)C[C@H]12 [IMIPENEM ANHYDROUS]	1.20
CO/N=C(\C(=O)N[C@@H]1C(=O)N2C(C(=O)O)=C(COC(C)=O)CS[C@H]12)c1csc(N)n1 [CEFOTAXIME]	2.41

Switching to the query record.
Record NC[C@H]1O[C@H](O[C@H]2[C@H](O)[C@@H](O[C@H]3O[C@H](CO)[C@@H](O)[C@H](N)[C@H]3O)[C@H](N)C[C@@H]2N)[C@H](N)C[C@@H]1O [TOBRAMYCIN] . Reported log10 of MIC: -0.30

###

# Tested on: Pseudomonas aeruginosa
# experiment_notes: Antimicrobial activity against Pseudomonas aeruginosa isolate 1529c from fibrosis patient by Etest
# Type: functional
Rule: MIC below 20 µg/mL gives condition met, anything at or above gives condition not met.

Example entries begin here.
compound	label_value
C[C@@H](O)[C@H]1C(=O)N2C(C(=O)O)=C(SCCNC=N)C[C@H]12 [IMIPENEM ANHYDROUS]	condition met
CO/N=C(\C(=O)N[C@@H]1C(=O)N2C(C(=O)O)=C(COC(C)=O)CS[C@H]12)c1csc(N)n1 [CEFOTAXIME]	condition not met
CC1(C)S[C@@H]2[C@H](NC(=O)C(C(=O)O)c3ccccc3)C(=O)N2[C@H]1C(=O)O (stereo partly drawn) [CARBENICILLIN]	condition met
C[C@@H](O)[C@H]1C(=O)N2C(C(=O)O)=C(S[C@@H]3CN[C@H](C(=O)N(C)C)C3)[C@H](C)[C@H]12 [MEROPENEM]	condition met
NCC[C@H](O)C(=O)N[C@@H]1C[C@H](N)[C@@H](O[C@H]2O[C@H](CN)[C@@H](O)[C@H](O)[C@H]2O)[C@H](O)[C@H]1O[C@H]1O[C@H](CO)[C@@H](O)[C@H](N)[C@H]1O [AMIKACIN]	condition not met
CC(C)(O/N=C(\C(=O)N[C@@H]1C(=O)N2C(C(=O)[O-])=C(C[n+]3ccccc3)CS[C@H]12)c1csc(N)n1)C(=O)O [CEFTAZIDIME]	condition met

Q: Hello, I'm reviewing records and need to know if MIC of NC[C@H]1O[C@H](O[C@H]2[C@H](O)[C@@H](O[C@H]3O[C@H](CO)[C@@H](O)[C@H](N)[C@H]3O)[C@H](N)C[C@@H]2N)[C@H](N)C[C@@H]1O [TOBRAMYCIN] is below 20 µg/mL. Could you check?
A: condition met

Q: Does C[C@H]1[C@H](NC(=O)/C(=N\OC(C)(C)C(=O)O)c2csc(N)n2)C(=O)N1S(=O)(=O)O [AZTREONAM] have MIC strictly under 20 µg/mL?
A: condition met

###

# Test system: Pseudomonas aeruginosa
# experiment_notes: Antimicrobial activity against Pseudomonas aeruginosa isolate 1495c from fibrosis patient by Etest
# Format: functional
Would you kindly list MIC for each of these compounds?

compound	endpoint_result
CC(C)(O/N=C(\C(=O)N[C@@H]1C(=O)N2C(C(=O)[O-])=C(C[n+]3ccccc3)CS[C@H]12)c1csc(N)n1)C(=O)O	> 256 µg/mL
C[C@@H](O)[C@H]1C(=O)N2C(C(=O)O)=C(SCCNC=N)C[C@H]12 [IMIPENEM ANHYDROUS]	> 32 µg/mL
O=C(O)c1cn(C2CC2)c2cc(N3CCNCC3)c(F)cc2c1=O	4 µg/mL
CC1(C)S[C@@H]2[C@H](NC(=O)C(C(=O)O)c3ccccc3)C(=O)N2[C@H]1C(=O)O (some centres undefined)	> 512 µg/mL
NCC[C@H](O)C(=O)N[C@@H]1C[C@H](N)[C@@H](O[C@H]2O[C@H](CN)[C@@H](O)[C@H](O)[C@H]2O)[C@H](O)[C@H]1O[C@H]1O[C@H](CO)[C@@H](O)[C@H](N)[C@H]1O	> 64 µg/mL

Hi there! I need MIC for each item below, if you can.
1. C[C@@H](O)[C@H]1C(=O)N2C(C(=O)O)=C(S[C@@H]3CN[C@H](C(=O)N(C)C)C3)[C@H](C)[C@H]12
2. NC[C@H]1O[C@H](O[C@H]2[C@H](O)[C@@H](O[C@H]3O[C@H](CO)[C@@H](O)[C@H](N)[C@H]3O)[C@H](N)C[C@@H]2N)[C@H](N)C[C@@H]1O
3. C[C@H]1[C@H](NC(=O)/C(=N\OC(C)(C)C(=O)O)c2csc(N)n2)C(=O)N1S(=O)(=O)O
4. CO/N=C(\C(=O)N[C@@H]1C(=O)N2C(C(=O)O)=C(COC(C)=O)CS[C@H]12)c1csc(N)n1

A:
1. > 32 µg/mL
2. 8 µg/mL
3. > 64 µg/mL
4. > 256 µg/mL

###

# Test system: Pseudomonas aeruginosa
# experiment_notes: Antimicrobial activity against Pseudomonas aeruginosa isolate 1240 from fibrosis patient by Etest
# Format: functional
measured_endpoint: MIC (µg/mL)
Give bare numbers, in µg/mL.

Check out these entries, answers already filled in.
molecule	MIC, µg/mL
CO/N=C(\C(=O)N[C@@H]1C(=O)N2C(C(=O)O)=C(COC(C)=O)CS[C@H]12)c1csc(N)n1 [CEFOTAXIME]	256
NC[C@H]1O[C@H](O[C@H]2[C@H](O)[C@@H](O[C@H]3O[C@H](CO)[C@@H](O)[C@H](N)[C@H]3O)[C@H](N)C[C@@H]2N)[C@H](N)C[C@@H]1O [TOBRAMYCIN]	0.5
CC(C)(O/N=C(\C(=O)N[C@@H]1C(=O)N2C(C(=O)[O-])=C(C[n+]3ccccc3)CS[C@H]12)c1csc(N)n1)C(=O)O [CEFTAZIDIME]	256
C[C@@H](O)[C@H]1C(=O)N2C(C(=O)O)=C(SCCNC=N)C[C@H]12 [IMIPENEM ANHYDROUS]	16
C[C@@H](O)[C@H]1C(=O)N2C(C(=O)O)=C(S[C@@H]3CN[C@H](C(=O)N(C)C)C3)[C@H](C)[C@H]12 [MEROPENEM]	8

Give MIC for each of the items listed below.
1. NCC[C@H](O)C(=O)N[C@@H]1C[C@H](N)[C@@H](O[C@H]2O[C@H](CN)[C@@H](O)[C@H](O)[C@H]2O)[C@H](O)[C@H]1O[C@H]1O[C@H](CO)[C@@H](O)[C@H](N)[C@H]1O [AMIKACIN]
2. C[C@H]1[C@H](NC(=O)/C(=N\OC(C)(C)C(=O)O)c2csc(N)n2)C(=O)N1S(=O)(=O)O [AZTREONAM]
3. CC1(C)S[C@@H]2[C@H](NC(=O)C(C(=O)O)c3ccccc3)C(=O)N2[C@H]1C(=O)O (stereo partly drawn) [CARBENICILLIN]

A:
4
4
128

###

Kindly state MIC for each of the entries shown.
# Test system: Pseudomonas aeruginosa
# experiment_notes: Antimicrobial activity against Pseudomonas aeruginosa isolate 1693c from fibrosis patient by Etest
# Assay type: functional
One number for each entry, in µg/mL.

The cases that follow already have their MIC on record.
compound	MIC / µg/mL
NC[C@H]1O[C@H](O[C@H]2[C@H](O)[C@@H](O[C@H]3O[C@H](CO)[C@@H](O)[C@H](N)[C@H]3O)[C@H](N)C[C@@H]2N)[C@H](N)C[C@@H]1O	2
C[C@@H](O)[C@H]1C(=O)N2C(C(=O)O)=C(SCCNC=N)C[C@H]12 [IMIPENEM ANHYDROUS]	8
O=C(O)c1cn(C2CC2)c2cc(N3CCNCC3)c(F)cc2c1=O	1
C[C@@H](O)[C@H]1C(=O)N2C(C(=O)O)=C(S[C@@H]3CN[C@H](C(=O)N(C)C)C3)[C@H](C)[C@H]12	2
CO/N=C(\C(=O)N[C@@H]1C(=O)N2C(C(=O)O)=C(COC(C)=O)CS[C@H]12)c1csc(N)n1	128
NCC[C@H](O)C(=O)N[C@@H]1C[C@H](N)[C@@H](O[C@H]2O[C@H](CN)[C@@H](O)[C@H](O)[C@H]2O)[C@H](O)[C@H]1O[C@H]1O[C@H](CO)[C@@H](O)[C@H](N)[C@H]1O	1
CC1(C)S[C@@H]2[C@H](NC(=O)C(C(=O)O)c3ccccc3)C(=O)N2[C@H]1C(=O)O (some centres undefined)	128
CC(C)(O/N=C(\C(=O)N[C@@H]1C(=O)N2C(C(=O)[O-])=C(C[n+]3ccccc3)CS[C@H]12)c1csc(N)n1)C(=O)O	8

Could you now consider this next compound?
Documented MIC of C[C@H]1[C@H](NC(=O)/C(=N\OC(C)(C)C(=O)O)c2csc(N)n2)C(=O)N1S(=O)(=O)O : 1
